# collection of Ki values tested on Prothrombin (Homo sapiens)

As a guide, the following entries are already answered.
molecule: Nc1cc(C2=NOC(CNC=O)(C(=O)Nc3ccc(-c4ccccc4S(N)(=O)=O)cn3)C2)ccc1Cl (racemic)
assayed target: Prothrombin (Homo sapiens)
Ki: 14 µM

molecule: Nc1cc(C2=NOC(Cn3cnnn3)(C(=O)Nc3ccc(-c4ccccc4S(N)(=O)=O)cn3)C2)ccc1Cl (racemic)
assayed target: Prothrombin (Homo sapiens)
Ki: > 21 µM

molecule: Nc1cc(C2=NOC(CNS(=O)(=O)c3ccccc3)(C(=O)Nc3ccc(-c4ccccc4S(N)(=O)=O)cn3)C2)ccc1Cl (racemic)
assayed target: Prothrombin (Homo sapiens)
Ki: > 21 µM

molecule: Nc1cc(C2=NOC(Cn3cncn3)(C(=O)Nc3ccc(-c4ccccc4S(N)(=O)=O)cn3)C2)ccc1Cl (racemic)
assayed target: Prothrombin (Homo sapiens)
Ki: > 21 µM

molecule: CC(=O)NCC1(C(=O)Nc2ccc(-c3ccccc3S(N)(=O)=O)cn2)CC(c2ccc(Cl)c(N)c2)=NO1 (racemic)
assayed target: Prothrombin (Homo sapiens)
Ki: > 21 µM

molecule: CCCS(=O)(=O)NCC1(C(=O)Nc2ccc(-c3ccccc3S(N)(=O)=O)cn2)CC(c2ccc(Cl)c(N)c2)=NO1 (racemic)
assayed target: Prothrombin (Homo sapiens)
Ki: 18 µM

Here is another molecule to look at.
Suppose we examine the molecule CS(=O)(=O)NCC1(C(=O)Nc2ccc(-c3ccccc3S(N)(=O)=O)cn2)CC(c2ccc(Cl)c(N)c2)=NO1 (stereo in doubt) ; what Ki value has been reported?
0.8 µM

* * *

Quick list: pKi per entry.
assayed target: Serine protease 1 (Homo sapiens)
pKi: −log10 of the molar value.

compound: NC(=O)NCC1(C(=O)Nc2ccc(-c3ccccc3S(N)(=O)=O)cn2)CC(c2ccc(Cl)c(N)c2)=NO1 (single isomer, unassigned; (+))
test value: < 5.22
//
compound: NC(=O)NCC1(C(=O)Nc2ccc(-c3ccccc3S(N)(=O)=O)cn2)CC(c2ccc(Cl)c(N)c2)=NO1 (racemic)
test value: < 5.80

Which measured pKi value corresponds to Nc1cc(C2=NOC(CNS(=O)(=O)Cc3ccccc3)(C(=O)Nc3ccc(-c4ccccc4S(N)(=O)=O)cn3)C2)ccc1Cl (racemic) ?
< 5.38

Now the same for CCNC(=O)NCC1(C(=O)Nc2ccc(-c3ccccc3S(N)(=O)=O)cn2)CC(c2ccc(Cl)c(N)c2)=NO1 (racemic)
< 5.38

Moving on to CS(=O)(=O)NCC1(C(=O)Nc2ccc(-c3ccccc3S(N)(=O)=O)cn2)CC(c2ccc3onc(N)c3c2)=NO1 (configuration not stated)
< 5.28

And for Nc1cc(C2=NOC(Cn3cnnn3)(C(=O)Nc3ccc(-c4ccccc4S(N)(=O)=O)cn3)C2)ccc1Cl (single isomer, unassigned; (+)) ?
< 5.80

Okay, and COc1ccc(C2=NOC(CNS(C)(=O)=O)(C(=O)Nc3ccc(-c4ccccc4S(N)(=O)=O)cn3)C2)cc1 (configuration not stated) ?
< 5.38

* * *

The reader will find Ki measurements below, all made with Coagulation factor X (Homo sapiens).
Sequence (P00742 41-179 limits assumed): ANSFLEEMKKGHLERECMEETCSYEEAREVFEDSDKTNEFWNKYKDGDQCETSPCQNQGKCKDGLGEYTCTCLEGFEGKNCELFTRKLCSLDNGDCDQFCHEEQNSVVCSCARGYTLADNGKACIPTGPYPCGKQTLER
Sequence (P00742 235-488 limits assumed): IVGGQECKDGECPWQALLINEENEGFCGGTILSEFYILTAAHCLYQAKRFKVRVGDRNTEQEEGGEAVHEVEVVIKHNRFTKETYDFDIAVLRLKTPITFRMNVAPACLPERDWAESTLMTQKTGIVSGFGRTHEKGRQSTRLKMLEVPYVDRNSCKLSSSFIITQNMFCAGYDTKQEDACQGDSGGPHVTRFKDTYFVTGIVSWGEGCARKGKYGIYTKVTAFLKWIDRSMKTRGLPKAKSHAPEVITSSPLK
Numeric only. Scale: nM

# annotated cases, reported Ki shown
compound: COc1ccc(C2=NOC(CNS(C)(=O)=O)(C(=O)Nc3ccc(-c4ccccc4S(N)(=O)=O)cn3)C2)cc1 (stereo not drawn)
test value: 10
//
compound: NC(=O)NCC1(C(=O)Nc2ccc(-c3ccccc3S(N)(=O)=O)cn2)CC(c2ccc(Cl)c(N)c2)=NO1 (single isomer, unassigned; (-))
test value: 2.5
//
compound: NC(=O)NCC1(C(=O)Nc2ccc(-c3ccccc3S(N)(=O)=O)cn2)CC(c2ccc(Cl)c(N)c2)=NO1 (single isomer, unassigned; (+))
test value: 69

So what's the measured Ki for this one? CS(=O)(=O)NCC1(C(=O)Nc2ccc(-c3ccccc3S(N)(=O)=O)cn2)CC(c2ccc3onc(N)c3c2)=NO1 (stereo not drawn)
4.6

Check CS(=O)(=O)NCC1(C(=O)Nc2ccc(-c3ccccc3S(N)(=O)=O)cn2)CC(c2ccc(Cl)c(N)c2)=NO1 (stereo in doubt) too.
1.5

Try the compound Nc1cc(C2=NOC(Cn3cnnn3)(C(=O)Nc3ccc(-c4ccccc4S(N)(=O)=O)cn3)C2)ccc1Cl (racemic)
10

Input CCNC(=O)NCC1(C(=O)Nc2ccc(-c3ccccc3S(N)(=O)=O)cn2)CC(c2ccc(Cl)c(N)c2)=NO1 (racemic)
69

What do you have for CC(=O)NCC1(C(=O)Nc2ccc(-c3ccccc3S(N)(=O)=O)cn2)CC(c2ccc(Cl)c(N)c2)=NO1 (racemic) ?
11

* * *

test method notes: Pharmacokinetic profile in terms of half life was determined at a dose of 0.5 mg/kg administered intravenously in dog
Assay type: ADME, organism-based, Canis lupus familiaris
Design: dose 0.5 mg/kg, route intravenous
assay conditions: in vivo, iv
Below is a list of entries, each paired with its recorded half-life value.
Reply numerically in h, unit not repeated.

compound: NC(=O)NCC1(C(=O)Nc2ccc(-c3ccccc3S(N)(=O)=O)cn2)CC(c2ccc(Cl)c(N)c2)=NO1 (single isomer, unassigned; (-))
half-life [h]: 2.32

# next compound below
Would you mind telling me what half-life value was observed for CS(=O)(=O)NCC1(C(=O)Nc2ccc(-c3ccccc3S(N)(=O)=O)cn2)CC(c2ccc(Cl)c(N)c2)=NO1 (stereo in doubt) ?
7.25

* * *

This listing pairs molecules with measured Ki.
assayed target: Coagulation factor X (Oryctolagus cuniculus, UniProt O19045)
Sequence (O19045 whole entry): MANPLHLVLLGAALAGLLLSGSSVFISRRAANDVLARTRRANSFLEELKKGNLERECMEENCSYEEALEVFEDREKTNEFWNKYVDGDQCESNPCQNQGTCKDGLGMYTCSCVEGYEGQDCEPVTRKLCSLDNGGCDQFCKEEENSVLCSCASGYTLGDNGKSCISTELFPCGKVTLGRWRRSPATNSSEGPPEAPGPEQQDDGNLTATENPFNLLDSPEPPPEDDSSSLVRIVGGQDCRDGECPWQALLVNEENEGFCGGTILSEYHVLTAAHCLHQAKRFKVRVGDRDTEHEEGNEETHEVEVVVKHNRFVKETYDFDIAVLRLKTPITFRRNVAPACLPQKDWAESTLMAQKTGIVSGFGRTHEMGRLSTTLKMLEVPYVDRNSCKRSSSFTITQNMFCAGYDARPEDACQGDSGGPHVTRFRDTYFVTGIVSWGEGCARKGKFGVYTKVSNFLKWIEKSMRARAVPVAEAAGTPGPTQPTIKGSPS

molecule: NC(=O)NCC1(C(=O)Nc2ccc(-c3ccccc3S(N)(=O)=O)cn2)CC(c2ccc(Cl)c(N)c2)=NO1 (single isomer, unassigned; (-))
assayed target: Coagulation factor X (Oryctolagus cuniculus, UniProt O19045)
test value: 4.7 nM

Pending molecule:
Provide value of Ki for this record tested with Coagulation factor X (Oryctolagus cuniculus, UniProt O19045): N=C(N)c1cccc(C2=NOC(Cn3cnnn3)(C(=O)Nc3ccc(-c4ccccc4S(N)(=O)=O)cn3)C2)c1 (configuration not stated)
0.11 nM

* * *

assayed target: Serine protease 1 (Homo sapiens, UniProt P07477)
Sequence (P07477 whole entry): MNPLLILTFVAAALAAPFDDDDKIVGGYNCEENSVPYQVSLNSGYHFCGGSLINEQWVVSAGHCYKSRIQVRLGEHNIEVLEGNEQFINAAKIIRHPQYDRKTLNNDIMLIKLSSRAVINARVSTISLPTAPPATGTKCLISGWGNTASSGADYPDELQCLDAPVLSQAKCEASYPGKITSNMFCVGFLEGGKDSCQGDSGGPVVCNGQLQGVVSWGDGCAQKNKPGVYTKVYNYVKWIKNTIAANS
We begin with a simple list: items and their reported Ki.

Sample records with Ki:
compound: Nc1cc(C2=NOC(CNS(N)(=O)=O)(C(=O)Nc3ccc(-c4ccccc4S(N)(=O)=O)cn3)C2)ccc1Cl (racemic)
assayed target: Serine protease 1 (Homo sapiens, UniProt P07477)
Ki: > 8000 nM
//
compound: Nc1cc(C2=NOC(Cn3cccn3)(C(=O)Nc3ccc(-c4ccccc4S(N)(=O)=O)cn3)C2)ccc1Cl (single isomer, unassigned; (+))
assayed target: Serine protease 1 (Homo sapiens, UniProt P07477)
Ki: > 1600 nM
//
compound: Nc1cc(C2=NOC(CNS(=O)(=O)c3cccnc3)(C(=O)Nc3ccc(-c4ccccc4S(N)(=O)=O)cn3)C2)ccc1Cl (racemic)
assayed target: Serine protease 1 (Homo sapiens, UniProt P07477)
Ki: > 8000 nM
//
compound: Nc1cc(C2=NOC(Cn3cnnn3)(C(=O)Nc3ccc(-c4ccccc4S(N)(=O)=O)cn3)C2)ccc1Cl (stereo in doubt; 20 (-))
assayed target: Serine protease 1 (Homo sapiens, UniProt P07477)
Ki: > 1600 nM

State the recorded Ki for this entry: NC(=O)NCC1(C(=O)Nc2ccc(-c3ccccc3S(N)(=O)=O)cn2)CC(c2ccc(Cl)c(N)c2)=NO1 (single isomer, unassigned; (-))
> 1600 nM

* * *

The following compounds each carry a recorded pKi for Coagulation factor X (Homo sapiens).
Note on pKi: it is the negative log10 of concentration, concentration in mol/L.

compound: Nc1cc(C2=NOC(CNS(=O)(=O)c3ccsc3)(C(=O)Nc3ccc(-c4ccccc4S(N)(=O)=O)cn3)C2)ccc1Cl (racemic)
pKi: 8.92
//
compound: CC1(C(=O)Nc2ccc(-c3ccccc3S(N)(=O)=O)cc2)CC(c2ccc(Cl)c(N)c2)=NO1 (stereo not given)
pKi: 6.89
//
compound: Nc1cc(C2=NOC(CNS(=O)(=O)CC(F)(F)F)(C(=O)Nc3ccc(-c4ccccc4S(N)(=O)=O)cn3)C2)ccc1Cl (racemic)
pKi: 8.48
//
compound: Nc1cc(C2=NOC(CNS(=O)(=O)c3cccnc3)(C(=O)Nc3ccc(-c4ccccc4S(N)(=O)=O)cn3)C2)ccc1Cl (racemic)
pKi: 8.52

In the following, a different compound is considered.
Quick check: pKi of Nc1cc(C2=NOC(Cn3cccn3)(C(=O)Nc3ccc(-c4ccccc4S(N)(=O)=O)cn3)C2)ccc1Cl (racemic) ?
7.85
